Cited source: ChEMBL document CHEMBL3885881

# Species: Rattus norvegicus
# assay info: DrugMatrix - Regimen: Daily Repeat
# Type: toxicity, organism-based, Sprague-Dawley
# Design: regimen Daily Repeat, gender Male, age 6-8 weeks
# particulars: in vivo, po, 0 mg/kg, 72 h, tissue Plasma, route oral GAVAGE, dose level Control, time 3 day, vehicle .5 % CMC
parameter measured: TOTAL PROTEIN (G/DL)

C=C1CC[C@H](O)C/C1=C/C=C1\CCC[C@]2(C)[C@@H]([C@H](C)/C=C/[C@H](C)C(C)C)CC[C@@H]12 | 6.33
O=C1CCc2cc(OCCCCc3nnnn3C3CCCCC3)ccc2N1 | 6.8
C[C@]12CCC(=O)C=C1CC[C@@H]1[C@@H]2C(=O)C[C@@]2(C)[C@H]1CC[C@]2(O)C(=O)CO | 6.85
CCOC(=O)OC(C)OC1=C(C(=O)Nc2ccccn2)N(C)S(=O)(=O)c2ccccc21 (centres undefined) | 6.25
CCC[C@@H]1C[C@@H](C(=O)N[C@@H]([C@H]2O[C@H](SC)[C@H](O)[C@@H](O)[C@H]2O)[C@@H](C)O)N(C)C1 | 5.77
O=c1[nH]cc(F)c(=O)[nH]1 | 5.92
CC[C@H]1OC(=O)[C@H](C)[C@@H](O[C@H]2C[C@@](C)(OC)[C@@H](O)[C@H](C)O2)[C@H](C)[C@@H](O[C@@H]2O[C@H](C)C[C@H](N(C)C)[C@H]2O)[C@](C)(O)C[C@@H](C)/C(=N\OCOCCOC)[C@H](C)[C@@H](O)[C@]1(C)O | 6.85
CCc1ccc(C(=O)C(C)CN2CCCCC2)cc1 (centres undefined) | 5.98
CC(/C=C1\SC(=S)N(CC(=O)O)C1=O)=C\c1ccccc1 | 5.75
CC1(C)[C@H]2CC[C@]1(C)C(=O)C2 [(-)-CAMPHOR] | 5.98
NCC(=O)O | 6.35
COc1c(C)c2c(c(O)c1C/C=C(\C)CCC(=O)OCCN1CCOCC1)C(=O)OC2 [MYCOPHENOLATE MOFETIL] | 5.75
CCc1cccc2c3c([nH]c12)C(CC)(CC(=O)O)OCC3 (centres undefined) | 6.85
CC(C)[C@H](N)C(=O)OCCOCn1cnc2c(=O)[nH]c(N)nc21 | 5.9
Brc1ccccc1 | 6.25
CN1C(C(=O)Nc2ccccn2)=C(O)c2ccccc2S1(=O)=O | 5.93
Cc1c(-c2ccccc2)oc2c(C(=O)OCCN3CCCCC3)cccc2c1=O [FLAVOXATE] | 5.8
CN1CCC[C@@H]1CCO[C@](C)(c1ccccc1)c1ccc(Cl)cc1 | 5.75
COC(=O)c1ccc(O)cc1 | 5.95
